Experiment notes: Microsomal assay: stability in human liver microsomes
Format: in vitro ADME
Assay setup: human, liver microsomes, pH 7.4, human liver microsomes 0.5 mg/mL, 1.0 μM test compound, first run (Table 2); read-out: T1/2 ± SD
The compounds listed here are annotated with their half-life at 1 μM.
The reply should be a number in min, with the unit left off.

- COC(=O)N[C@H](C(=O)N[C@@H](Cc1ccccc1)[C@@H](O)CN(Cc1ccc(-c2ccccn2)cc1)NC(=O)[C@@H](NC(=O)OC)C(C)(C)C)C(C)(C)C [Atazanavir, atazanavir, reference compound]: 18.6
- [2H]C([2H])([2H])C([C@H](NC(=O)OC)C(=O)N[C@@H](Cc1ccccc1)[C@@H](O)CN(Cc1ccc(-c2ccccn2)cc1)NC(=O)[C@@H](NC(=O)OC)C(C([2H])([2H])[2H])(C([2H])([2H])[2H])C([2H])([2H])[2H])(C([2H])([2H])[2H])C([2H])([2H])[2H] [Compound 106]: 26.1
- [2H]C([2H])([2H])OC(=O)N[C@H](C(=O)N[C@@H](Cc1ccccc1)[C@@H](O)CN(Cc1ccc(-c2ccccn2)cc1)NC(=O)[C@@H](NC(=O)OC([2H])([2H])[2H])C(C([2H])([2H])[2H])(C([2H])([2H])[2H])C([2H])([2H])[2H])C(C([2H])([2H])[2H])(C([2H])([2H])[2H])C([2H])([2H])[2H] [Compound 122]: 35.4

// query Consider the compound [2H]C([2H])([2H])OC(=O)N[C@H](C(=O)N[C@@H](Cc1ccccc1)[C@@H](O)CN(Cc1ccc(-c2ccccn2)cc1)NC(=O)[C@@H](NC(=O)OC([2H])([2H])[2H])C(C)(C)C)C(C)(C)C [Compound 103] and give its recorded half-life at 1 μM.
// result 20.2

###

Overview of recorded concentration detected intact in urine for various compounds
Experiment notes: Chimp pharmacokinetics Run A, IV or PO co-dosing of atazanavir and Compounds 114, 120, 122
Assay type: in vivo, chimpanzee
Assay setup: chimpanzee, in vivo, iv, 24 h
Method: Chimp Pharmacokineties. Run A: A 4 mg/mL solution of atazanavir and each of Compounds 114, 120 and 122 were prepared in 10% DMI (dimethyl isosorbide), 15% EtOH, 35% PG in D5W. Specifically, for each compound, 240 mgs of compound was dissolved in a solution composed of 6 mL of DMI, 9 mL of EtOH and 21 mL PG. Once the compound was fully dissolved, 24 mL of D5W was added and the solution mixed. […]
Numbers only; they are read as ng/mL.

* [2H]C([2H])([2H])OC(=O)N[C@H](C(=O)N[C@@H](Cc1ccccc1)[C@@H](O)CN(Cc1ccc(-c2ccccn2)cc1)NC(=O)[C@@H](NC(=O)OC([2H])([2H])[2H])C(C([2H])([2H])[2H])(C([2H])([2H])[2H])C([2H])([2H])[2H])C(C([2H])([2H])[2H])(C([2H])([2H])[2H])C([2H])([2H])[2H] | 3250
* [2H]C([2H])([2H])OC(=O)N[C@H](C(=O)NN(Cc1ccc(-c2ccccn2)cc1)C[C@H](O)[C@H](Cc1ccccc1)NC(=O)[C@@H](NC(=O)OC([2H])([2H])[2H])C(C([2H])([2H])[2H])(C([2H])([2H])[2H])C([2H])([2H])[2H])C(C)(C)C | 3110

// query # return recorded concentration detected intact in urine for input COC(=O)N[C@H](C(=O)N[C@@H](Cc1ccccc1)[C@@H](O)CN(Cc1ccc(-c2ccccn2)cc1)NC(=O)[C@@H](NC(=O)OC)C(C)(C)C)C(C)(C)C [Atazanavir, atazanavir, reference compound]
// result 1790

// query Fill in concentration detected intact in urine for record [2H]C([2H])([2H])OC(=O)N[C@H](C(=O)N[C@@H](Cc1ccccc1)[C@@H](O)CN(Cc1ccc(-c2ccccn2)cc1)NC(=O)[C@@H](NC(=O)OC)C(C)(C)C)C(C([2H])([2H])[2H])(C([2H])([2H])[2H])C([2H])([2H])[2H]
// result 2820

###

Quick reference: AUC of the listed items.
Experiment notes: Rat pharmacokinetics, intravenous and oral co-dosing of Compound 122 and atazanavir
Assay type: in vivo
Assay setup: male, Sprague-Dawley, plasma, rats, oral co-dosing, 1 mg/kg of each
Note: unit ng·h/mL is implicit; provide only the numeric part.

• COC(=O)N[C@H](C(=O)N[C@@H](Cc1ccccc1)[C@@H](O)CN(Cc1ccc(-c2ccccn2)cc1)NC(=O)[C@@H](NC(=O)OC)C(C)(C)C)C(C)(C)C [Atazanavir, atazanavir, reference compound] = 86

// query State its AUC for this compound: [2H]C([2H])([2H])OC(=O)N[C@H](C(=O)N[C@@H](Cc1ccccc1)[C@@H](O)CN(Cc1ccc(-c2ccccn2)cc1)NC(=O)[C@@H](NC(=O)OC([2H])([2H])[2H])C(C([2H])([2H])[2H])(C([2H])([2H])[2H])C([2H])([2H])[2H])C(C([2H])([2H])[2H])(C([2H])([2H])[2H])C([2H])([2H])[2H] [Compound 122]
// result 156

###

This section presents compounds with their documented concentration at 24 h values.
Experiment notes: in vivo
Assay setup: chimpanzee, po, concentration detected intact in urine
Value expressed in ng/mL; do not type the unit.

* [2H]C([2H])([2H])OC(=O)N[C@H](C(=O)NN(Cc1ccc(-c2ccccn2)cc1)C[C@H](O)[C@H](Cc1ccccc1)NC(=O)[C@@H](NC(=O)OC([2H])([2H])[2H])C(C([2H])([2H])[2H])(C([2H])([2H])[2H])C([2H])([2H])[2H])C(C)(C)C | 2930
* COC(=O)N[C@H](C(=O)N[C@@H](Cc1ccccc1)[C@@H](O)CN(Cc1ccc(-c2ccccn2)cc1)NC(=O)[C@@H](NC(=O)OC)C(C)(C)C)C(C)(C)C [Atazanavir, atazanavir, reference compound] | 1640

// switching to the query compound
// query Give recorded concentration at 24 h. [2H]C([2H])([2H])OC(=O)N[C@H](C(=O)N[C@@H](Cc1ccccc1)[C@@H](O)CN(Cc1ccc(-c2ccccn2)cc1)NC(=O)[C@@H](NC(=O)OC)C(C)(C)C)C(C([2H])([2H])[2H])(C([2H])([2H])[2H])C([2H])([2H])[2H]
// result 2530
